measurement.notes: TOX21_TRB_BLA_Antagonist_Followup_viability: Viability Assessment in the Tox21 Thyroid Hormone Receptor beta Antagonism Beta-lactamase (BLA) Follow-Up Assay (AID 2283961)
Inconclusive results are not listed. Calls of active or inactive are those of the source. Rule for the calls: active = hit-call score of the fitted dose curve at least 0.9, where 1 is the maximum; inconclusive = response in the unintended direction; inactive = score below 0.9.
Log the outcome using a class from active, inactive

{"columns": ["compound", "discrete.label"],
 "data": [
  ["COC(=O)Nc1nc2ccc(S(=O)c3ccccc3)cc2[nH]1 (stereo not given)", "inactive"]
]}

Hi team, can someone confirm the assay call for O=C1c2ccccc2-c2n[nH]c3cccc1c23 ?
inactive

Hi team, can someone confirm the assay call for C/C=C1/C(=O)C[C@H]2[C@@H]3CCC4=CC(=O)CC[C@]4(C)[C@H]3CC[C@]12C ?
inactive

Hi team, can someone confirm the assay call for C#C[C@]1(O)CC[C@H]2[C@@H]3CCC4=C(CCC(=O)C4)[C@H]3CC[C@@]21C ?
inactive
